# Test system: human blood (whole blood clot lysis, tPA)
# assay info: Thromboelastometry (ROTEM, modified in-tem with tPA): whole blood clot formation and lysis, human blood
# protocol conditions: Homo sapiens, read-out: EC50LT (effective concentration to delay lysis time by 50%)
pEC50: −log10 of the molar value.
readout type: pEC50

CNC(=O)c1ccc(Oc2ccc(S(=O)(=O)C3(C(=O)NO)CCC4(CCNCC4)C3)cc2)cc1F (stereo not drawn) : < 4.60
O=C(O)c1cccc(Oc2ccc(S(=O)(=O)C3(C(=O)NO)CCC4(CCNCC4)C3)cc2)c1 (stereo not drawn) : 5.00 to 6.00
O=C(NO)C1(S(=O)(=O)c2ccc(NC3CCCCC3)c(Cl)c2)CCC2(CCNCC2)C1 (stereo not drawn) : > 6.00
O=C(O)c1ccc(Oc2ccc(S(=O)(=O)C3(C(=O)NO)CCC4(CCNCC4)C3)cc2)cc1 (stereo not drawn) : > 6.00
O=C(NO)C1(S(=O)(=O)c2ccc(OCC3CCCCC3)cc2)CCC2(CCNCC2)C1 (stereo not drawn) : 5.00 to 6.00
COc1ccc(Oc2ccc(S(=O)(=O)C3(C(=O)NO)CCC4(CCCNC4)CC3)cc2)cc1 (stereo not drawn) : > 6.00
CNC(=O)c1ccc(Oc2ccc(S(=O)(=O)C3(C(=O)NO)CCC4(CCNCC4)C3)cc2)cc1 (stereo not drawn) : > 6.00
CC(C)CCOc1ccc(S(=O)(=O)C2(C(=O)NO)CCC3(CCNCC3)C2)cc1 (stereo not drawn) : 4.60 to 5.00
COc1ccc(Oc2ccc(S(=O)(=O)C3(C(=O)NO)CCC4(CCN(CC(C)=O)CC4)C3)cc2)cc1 (stereo not drawn) : 5.00 to 6.00
CC(C)NC(=O)c1ccc(Oc2ccc(S(=O)(=O)C3(C(=O)NO)CCC4(CCNCC4)C3)cc2)cc1 (stereo not drawn) : 5.00 to 6.00

Take each entry in turn and give its pEC50.
1. O=C(NO)C1(S(=O)(=O)c2ccc(Oc3ccc(OC(F)(F)F)cc3)cc2)CCC2(CCN(C3CC3)CC2)C1 (stereo not drawn)
2. COc1ccc(Oc2ccc(S(=O)(=O)C3(C(=O)NO)CCC4(CCN(C5CC5)CC4)C3)cc2)cc1 (stereo not drawn)
3. O=C(NO)C1(S(=O)(=O)c2ccc(OCc3ccncc3)cc2)CCC2(CCNCC2)C1 (stereo not drawn)
4. COc1ccc(-c2ccc(S(=O)(=O)C3(C(=O)NO)CCC4(CCNCC4)C3)cc2)cc1 (stereo not drawn)
5. COc1ccc(Sc2ccc(S(=O)(=O)C3(C(=O)NO)CCC4(CCNCC4)C3)cc2)cc1 (stereo not drawn)

Solution:
1: 5.00 to 6.00; 2: 5.00 to 6.00; 3: > 6.00; 4: < 4.60; 5: < 4.60

Take each entry in turn and give its pEC50.
1. O=C(Oc1ccc(S(=O)(=O)C2(C(=O)NO)CCC3(CCNCC3)C2)cc1)c1ccc(OC(F)(F)F)cc1 (stereo not drawn)
2. COc1ccc(S(=O)(=O)[C@]2(C(=O)NO)CCC3(CCNCC3)C2)cc1Cl
3. O=C(NO)C1(S(=O)(=O)c2ccc(Oc3ccc(OC(F)(F)F)cc3)cc2)CCC2(CCNCC2)C1 (stereo not drawn)
4. NC[C@H]1CC[C@H](C(=O)O)CC1 [TXA, tranexamic acid, reference compound]

Solution:
< 4.60
> 6.00
> 6.00
5.00 to 6.00

Take each entry in turn and give its pEC50.
1. CNC(=O)C1CCC(Nc2ccc(S(=O)(=O)C3(C(=O)NO)CCC4(CCNCC4)C3)cc2)CC1 (stereo not drawn)
2. O=C(NO)C1(S(=O)(=O)c2ccc(NC3CCCC3)cc2)CCC2(CCNCC2)C1 (stereo not drawn)
3. O=C(NO)C1(S(=O)(=O)c2ccc(F)c(Cl)c2)CCC2(CCNCC2)C1 (stereo not drawn)

Solution:
["< 4.60", "5.00 to 6.00", "> 6.00"]

Take each entry in turn and give its pEC50.
1. COc1ccc(Oc2ccc(S(=O)(=O)C3(C(=O)NO)CCC4(CCN(c5ccccn5)CC4)C3)cc2)cc1 (stereo not drawn)
2. COc1ccc(S(=O)(=O)[C@@]2(C(=O)NO)CCC3(CCNCC3)C2)cc1Cl
3. COc1ccc(S(=O)(=O)C2(C(=O)NO)CCC3(CCNCC3)C2)cc1Cl (stereo not drawn)
4. COc1ccc(Oc2ccc(S(=O)(=O)C3(C(=O)NO)CC34CCNCC4)cc2)cc1 (stereo not drawn)
5. O=C(Oc1cccc(S(=O)(=O)C2(C(=O)NO)CCC3(CCNCC3)C2)c1)c1ccc(OC(F)(F)F)cc1 (stereo not drawn)
6. O=C(NO)C1(S(=O)(=O)c2ccc(NCC3CCCCC3)cc2)CCC2(CCNCC2)C1 (stereo not drawn)
7. O=C(Oc1ccc(S(=O)(=O)C2(C(=O)NO)CCC3(CCNCC3)C2)cc1)C1CCCCC1 (stereo not drawn)
8. O=C(O)c1ccc(Oc2ccc(S(=O)(=O)C3(C(=O)NO)CCC4(CCNCC4)C3)cc2)cc1F (stereo not drawn)

Solution:
1: 5.00 to 6.00; 2: > 6.00; 3: > 6.00; 4: > 6.00; 5: < 4.60; 6: > 6.00; 7: < 4.60; 8: > 6.00
